# reported melting point; entries follow

Known melting point results, listed for orientation:
[
  {
    "compound": "CCc1ccc(CC(=O)Nc2ccc(S(N)(=O)=O)cc2)cc1Oc1cc(Cl)cc(Br)c1Cl [Compound I-35]",
    "melting point": "206.9 to 209.9 °C"
  },
  {
    "compound": "CCc1ccc(CC(=O)Nc2ccc(S(=O)(=O)NC)cc2)cc1Oc1cc(Cl)cc(C#N)c1 [Compound I-48]",
    "melting point": "149.1 to 151.3 °C"
  },
  {
    "compound": "COCCC(=O)N(C)S(=O)(=O)c1ccc(NC(=O)Cc2ccc(Cl)c(Oc3cc(Cl)cc(C#N)c3)c2F)c(Cl)c1 [Compound I-172]",
    "melting point": "199.3 to 203 °C"
  }
]

# context switch: different compound, same melting point
Look at this compound and give its reported melting point. CCc1ccc(CC(=O)Nc2ccc(S(N)(=O)=O)cc2)cc1Oc1cc(Cl)ccc1Cl [Compound I-19]
190 to 193.4 °C

* * *

outcome_measure: melting point

Study these solved cases before continuing.
[
  {
    "molecule": "CC(C)CCC(=O)NS(=O)(=O)c1ccc(NC(=O)Cc2ccc(Cl)c(Oc3cc(Cl)cc(C#N)c3)c2F)c(Cl)c1.[Na]",
    "melting point": "195.6 to 197 °C"
  },
  {
    "molecule": "CCc1ccc(CC(=O)Nc2ccc(S(N)(=O)=O)cc2)cc1Oc1cc(Cl)ccc1C#N [Compound I-17]",
    "melting point": "198.1 to 202.6 °C"
  },
  {
    "molecule": "CCc1ccc(CC(=O)Nc2ccccc2Cl)cc1Oc1cc(Cl)cc(Br)c1Cl [Compound I-37]",
    "melting point": "146.5 to 147.6 °C"
  },
  {
    "molecule": "CN(C(=O)Cc1ccc(Cl)c(Oc2cc(Cl)cc(C#N)c2)c1F)c1ccccc1Cl [Compound I-111]",
    "melting point": "134 to 137.1 °C"
  },
  {
    "molecule": "Cc1cc(S(=O)(=O)N2CCSCC2)ccc1NC(=O)Cc1ccc(C)c(Oc2cc(Cl)cc(C#N)c2)c1 [Compound I-117]",
    "melting point": "151.9 to 155.3 °C"
  },
  {
    "molecule": "CCc1ccc(CC(=O)Nc2ccccc2Cl)cc1Oc1cc(Cl)ccc1Br [Compound I-16]",
    "melting point": "154 to 155.5 °C"
  },
  {
    "molecule": "CCc1ccc(CC(=O)Nc2ccc(S(N)(=O)=O)cc2)cc1Oc1cc(Cl)cc(C#N)c1 [Compound I-45]",
    "melting point": "170.7 to 172.4 °C"
  },
  {
    "molecule": "CCc1ccc(CC(=O)Nc2ccc(S(N)(=O)=O)cc2C)cc1Oc1cc(Cl)cc(C#N)c1 [Compound I-46]",
    "melting point": "189.1 to 189.4 °C"
  }
]

melting point for CCc1ccc(CC(=O)Nc2ccccc2Cl)cc1Oc1cc(Br)cc(Br)c1Cl [Compound I-38] ?
155.5 to 155.8 °C

Next molecule: Cc1cc(S(N)(=O)=O)ccc1NC(=O)Cc1ccc(C)c(Oc2cc(C#N)cc(C#N)c2)c1 [Compound I-43]
228.6 to 230.9 °C

And then COC(=O)Cc1ccc(NC(=O)Cc2ccc(C)c(Oc3cc(Cl)cc(C#N)c3)c2)c(Cl)c1 [Compound I-235] , what is it?
116.9 to 118 °C

# iterate: Cc1cc(CC(=O)Nc2ccc(S(N)(=O)=O)cc2)cc(Oc2cc(Cl)cc(C#N)c2)c1C [Compound I-182]
229.7 to 231.3 °C

Do the same for Cc1ccc(C#N)cc1C(=O)c1cc(CC(=O)Nc2ccc(S(N)(=O)=O)cc2)ccc1C [Compound I-266] please
229.6 to 231.1 °C

Likewise for CCc1ccc(CC(=O)Nc2ccc(S(N)(=O)=O)cc2)cc1Oc1cc(Cl)ccc1Br [Compound I-15] ?
193.7 to 195.9 °C

Then what about the molecule Cc1cc(S(N)(=O)=O)ccc1NC(=O)Cc1cc(C)c(C)c(Oc2cc(Cl)cc(C#N)c2)c1 [Compound I-183] ?
230.8 to 233.4 °C

# repeat for N#Cc1cc(Oc2cc(CC(=O)Nc3ccc(S(N)(=O)=O)cc3)ccc2Cl)cc(C(F)(F)F)c1 [Compound I-88]
219 to 221.4 °C

* * *

melting point by entry:

Solved cases (5 shown):
[
  {
    "compound": "Cc1ccc(CC(=O)Nc2ccnn2C)cc1Oc1cc(Cl)cc(C#N)c1 [Compound I-227]",
    "melting point": "129.5 to 132.8 °C"
  },
  {
    "compound": "NS(=O)(=O)c1ccc(NC(=O)Cc2ccc(Cl)c(C(=O)c3cc(Cl)ccc3Cl)c2)c(Cl)c1 [Compound I-253]",
    "melting point": "197 to 199.6 °C"
  },
  {
    "compound": "COCC(=O)N(C)S(=O)(=O)c1ccc(NC(=O)Cc2ccc(Cl)c(Oc3cc(Cl)cc(C#N)c3)c2F)c(Cl)c1 [Compound I-171]",
    "melting point": "183.2 to 185.5 °C"
  },
  {
    "compound": "Cc1ccc(CC(=O)Nc2ccc(S(N)(=O)=O)cc2)cc1Oc1cc(F)cc(C#N)c1 [Compound I-11]",
    "melting point": "165.8 to 168.1 °C"
  },
  {
    "compound": "NS(=O)(=O)c1ccc(NC(=O)Cc2ccc(Cl)c(C(=O)c3cc(Cl)ccc3Cl)c2)cc1 [Compound I-250]",
    "melting point": "213.9 to 216.1 °C"
  }
]

May I ask what melting point has been recorded for NS(=O)(=O)c1ccc(NC(=O)Cc2cc(Oc3cc(Cl)cc(Cl)c3)c3occc3c2)c(Cl)c1 [Compound I-149] ?
215.1 to 216.6 °C

Can you check Cc1cc(CC(=O)Nc2ccc(S(N)(=O)=O)cc2)cc(C(=O)c2cccc(Cl)c2)c1 [Compound I-261] next?
211 to 213.1 °C

Entry N#Cc1cc(C#N)cc(Oc2c(Cl)ccc(CC(=O)Nc3ccccc3Cl)c2F)c1 [Compound I-28] please
182.6 to 196.5 °C
